Biological target: T1, B3GNT2 (Homo sapiens, UniProt Q9NY97)
T1 construct: The respective ORFs of candidate genes [CD274 (NM_014143), MCL1 (NM_021960), JUNB (NM_002229), and B3GNT2 (NM_006577)] were synthesized; expressed in transfected cells; host or cells: A375 melanoma cells (lentiviral ORF overexpression)
T1 sequence (Q9NY97 1-397): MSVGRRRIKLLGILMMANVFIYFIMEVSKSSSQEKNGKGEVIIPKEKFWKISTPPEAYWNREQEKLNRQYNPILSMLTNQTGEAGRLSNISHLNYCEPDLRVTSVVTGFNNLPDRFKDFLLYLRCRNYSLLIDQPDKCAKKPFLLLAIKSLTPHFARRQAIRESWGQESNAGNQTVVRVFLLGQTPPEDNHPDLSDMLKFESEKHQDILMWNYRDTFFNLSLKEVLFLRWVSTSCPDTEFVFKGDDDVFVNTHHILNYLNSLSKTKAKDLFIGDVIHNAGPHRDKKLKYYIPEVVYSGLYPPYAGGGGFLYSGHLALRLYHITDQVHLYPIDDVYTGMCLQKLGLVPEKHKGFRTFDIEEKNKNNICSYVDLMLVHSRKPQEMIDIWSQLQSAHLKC
Assay: Co-IP of FLAG-tagged B3GNT2 followed by mass spectrometry
Assay type: cell-based
Conditions: Co-IP followed by mass spectrometry of B3GNT2; C-term tag, IgG pull-down
This section presents molecules with their documented C-term IgG values.
readout: C-term IgG

molecule: LSM12 (protein) AAPPGEYFSVGSQVSCRTCQEQRLQGEVVAFDYQSKMLALKCPSSSGKPNHADILLINLQYVSEVEIINDRTETPPPLASLNVSKLASKARTEKEEKLSQAYAISAGVSLEGQQLFQTIHKTIKDCKWQEKNIVVMEEVVITPPYQVENCKGKEGSALSHVRKIVEKHFRDVESQKILQRSQAQQPQKEAALSS
measValue: 0
--
molecule: SPARC (protein) APQQEALPDETEVVEETVAEVTEVSVGANPVQVEVGEFDDGAEETEEEVVAENPCQNHHCKHGKVCELDENNTPMCVCQDPTSCPAPIGEFEKVCSNDNKTFDSSCHFFATKCTLEGTKKGHKLHLDYIGPCKYIPPCLDSELTEFPLRMRDWLKNVLVTLYERDEDNNLLTEKQKLRVKKIHENEKRLEAGDHPVELLARDFEKNYNMYIFPVHWQFGQLDQHPIDGYLSHTELAPLRAPLIPMEHCTTRFFETCDLDNDKYIALDEWAGCFGIKQKDIDKDLVI
measValue: 0
--
molecule: MTCH2 (protein, UniProt Q9Y6C9 2-303, looked up) Mitochondrial carrier homolog …: ADAASQVLLGSGLTILSQPLMYVKVLIQVGYEPLPPTIGRNIFGRQVCQLPGLFSYAQHIASIDGRRGLFTGLTPRLCSGVLGTVVHGKVLQHYQESDKGEELGPGNVQKEVSSSFDHVIKETTREMIARSAATLITHPFHVITLRSMVQFIGRESKYCGLCDSIITIYREEGILGFFAGLVPRLLGDILSLWLCNSLAYLVNTYALDSGVSTMNEMKSYSQAVTGFFASMLTYPFVLVSNLMAVNNCGLAGGCPPYSPIYTSWIDCWCMLQKEGNMSRGNSLFFRKVPFGKTYCCDLKMLI
measValue: 0
